A compilation of published IC50 results with 3',5'-cyclic-AMP phosphodiesterase 4B (Rattus norvegicus).
Biological target: 3',5'-cyclic-AMP phosphodiesterase 4B (Rattus norvegicus)
Sequence (P14646 whole entry): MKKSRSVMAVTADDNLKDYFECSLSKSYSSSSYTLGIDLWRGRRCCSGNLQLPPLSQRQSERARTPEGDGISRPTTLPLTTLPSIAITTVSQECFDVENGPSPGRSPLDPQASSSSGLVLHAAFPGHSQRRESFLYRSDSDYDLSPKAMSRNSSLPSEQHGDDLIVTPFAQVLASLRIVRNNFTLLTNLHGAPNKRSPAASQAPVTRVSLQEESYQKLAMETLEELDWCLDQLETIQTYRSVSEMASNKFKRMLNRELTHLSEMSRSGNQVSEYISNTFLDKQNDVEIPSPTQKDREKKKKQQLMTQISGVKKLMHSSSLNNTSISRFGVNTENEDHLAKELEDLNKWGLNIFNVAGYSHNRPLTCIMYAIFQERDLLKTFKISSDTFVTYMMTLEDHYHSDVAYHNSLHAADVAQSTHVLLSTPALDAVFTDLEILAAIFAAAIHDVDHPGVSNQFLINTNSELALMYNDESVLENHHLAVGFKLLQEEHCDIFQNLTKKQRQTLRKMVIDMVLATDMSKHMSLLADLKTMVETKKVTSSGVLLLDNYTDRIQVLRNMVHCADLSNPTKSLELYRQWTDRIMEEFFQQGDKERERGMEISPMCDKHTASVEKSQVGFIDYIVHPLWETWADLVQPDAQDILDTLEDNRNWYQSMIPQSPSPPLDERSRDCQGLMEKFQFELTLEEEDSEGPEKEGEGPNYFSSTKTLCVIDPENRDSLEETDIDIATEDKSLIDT
The label Met is reserved for IC50 strictly under 200 nM; Not met covers values equal to or above it.

Answered cases to consult:
N#Cc1cccc(-c2nc(OS(=O)(=O)C(F)(F)F)cc3cccnc23)c1 ... Not met
Cc1ccc(O)c(C(=O)N[C@H]2CC[C@@H](NC(=O)c3cc(F)cnc3Oc3cccc(-c4ccc(CN5C[C@@H](C)N[C@@H](C)C5)cc4CN4CCOCC4)c3)CC2)c1 ... Met
CCc1nc(-c2cc(OCC3CC3)cc(OCC3CC3)c2)c2cc(OC)c(OCC3CC3)cc2n1 ... Not met
O=C(O)c1ccc(-c2cc3cccnc3c(-c3cccc([N+](=O)[O-])c3)n2)cc1 ... Met
COc1cc2c(-c3cc(OCC4CC4)cc(OCC4CC4)c3)nc(-c3cccs3)nc2cc1OCCO ... Not met

-- ask Lab log: compare recorded IC50 with 200 nM; is it strictly lower for O=[N+]([O-])c1cccc(-c2nc(-c3cccnc3)cc3cccnc23)c1 ?
-- reply Met

-- ask Lab log: compare recorded IC50 with 200 nM; is it strictly lower for O=[N+]([O-])c1cccc(-c2nc(-c3ccco3)cc3cccnc23)c1 ?
-- reply Not met

-- ask Lab log: compare recorded IC50 with 200 nM; is it strictly lower for COc1cc2nc(C)nc(-c3cc(O)cc(O)c3)c2cc1OC ?
-- reply Not met
